Recorded RBA (%) values for a group of compounds are listed next.
Biological target: human AR recombinant (Homo sapiens, UniProt P10275)
Construct: purchased Pan-Vera
Sequence (P10275 whole entry): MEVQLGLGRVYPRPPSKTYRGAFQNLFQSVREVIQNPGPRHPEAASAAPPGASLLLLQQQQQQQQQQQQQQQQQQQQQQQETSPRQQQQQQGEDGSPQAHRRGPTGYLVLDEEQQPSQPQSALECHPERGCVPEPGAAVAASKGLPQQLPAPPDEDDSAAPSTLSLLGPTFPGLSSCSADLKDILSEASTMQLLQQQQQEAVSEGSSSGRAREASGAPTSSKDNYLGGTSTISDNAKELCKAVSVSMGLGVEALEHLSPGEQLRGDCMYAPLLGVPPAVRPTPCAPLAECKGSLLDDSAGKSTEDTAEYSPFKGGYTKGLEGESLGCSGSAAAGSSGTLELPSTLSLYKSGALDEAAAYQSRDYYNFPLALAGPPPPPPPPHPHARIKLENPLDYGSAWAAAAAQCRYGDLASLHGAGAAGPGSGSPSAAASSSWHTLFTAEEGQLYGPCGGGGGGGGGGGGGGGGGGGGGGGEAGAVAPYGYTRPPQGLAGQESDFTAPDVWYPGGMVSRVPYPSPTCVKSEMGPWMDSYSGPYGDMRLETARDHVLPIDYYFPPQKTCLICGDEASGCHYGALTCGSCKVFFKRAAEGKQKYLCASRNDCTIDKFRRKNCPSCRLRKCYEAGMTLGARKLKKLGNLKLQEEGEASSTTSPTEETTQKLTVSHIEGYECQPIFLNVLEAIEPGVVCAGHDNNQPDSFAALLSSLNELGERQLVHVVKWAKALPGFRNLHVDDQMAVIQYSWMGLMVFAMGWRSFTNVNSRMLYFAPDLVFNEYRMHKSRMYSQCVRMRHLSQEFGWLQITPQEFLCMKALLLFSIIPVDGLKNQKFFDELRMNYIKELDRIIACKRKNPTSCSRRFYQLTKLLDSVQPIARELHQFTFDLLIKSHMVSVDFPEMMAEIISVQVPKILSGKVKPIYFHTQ
Assay: Relative Binding Affinity (RBA) assay, competitive binding with [3H]R1881
Conditions: against [3H]R1881; R1881 standard = 100 by definition
reported_property: RBA (%)

[
  {
    "compound": "CN(C)C[C@@](C)(O)C(=O)Nc1ccc([N+](=O)[O-])c(C(F)(F)F)c1 [(R)-Compound 2]",
    "measurement": 0.036
  },
  {
    "compound": "C[C@](O)(CBr)C(=O)Nc1ccc(F)c(C(F)(F)F)c1 [(R)-F-1]",
    "measurement": 0.057
  },
  {
    "compound": "C[C@]1(O)CC[C@H]2[C@@H]3CCC4=CC(=O)CCC4=C3C=C[C@@]21C",
    "measurement": 100
  },
  {
    "compound": "CN(C)C[C@@](C)(O)C(=O)Nc1ccc(F)c(C(F)(F)F)c1 [(R)-Compound 3]",
    "measurement": 0.029
  },
  {
    "compound": "CC(C)(O)C(=O)Nc1ccc(F)c(C(F)(F)F)c1 [(R)-F-2]",
    "measurement": 0.027
  },
  {
    "compound": "CN(C)C[C@@](C)(O)C(=O)Nc1ccc(C#N)c(C(F)(F)F)c1 [(R)-Compound 1]",
    "measurement": 0.030
  },
  {
    "compound": "CC(C)(O)C(=O)Nc1ccc([N+](=O)[O-])c(C(F)(F)F)c1 [Hydroxyflutamide]",
    "measurement": 0.027
  }
]
